For each record, write down the corresponding mortality.
System: Plutella xylostella
ASSAY_INFO: Insecticidal activity against second-instar larvae of Plutella xylostella (diamondback moth) assessed as mortality at compound administered topically at 1 ug/mg insect measured after 72 hr
Type: functional

Exam item: If you can, please state the reported mortality value of Cc1ccc(CC2=CCOC2=O)cc1 .
Marked response: 25%

Exam item: Entry CCN(CC)P(=O)(Oc1occc1Cc1c(C)cccc1Cl)N(CC)CC please
Marked response: 37.5%

Exam item: What would you report for O=P(Oc1ccco1)(N1CCCCC1)N1CCCCC1 ?
Marked response: 20%

Exam item: Another compound to check: CCN(CC)P(=O)(Oc1occc1Cc1cccc(Cl)c1)N(CC)CC
Marked response: 37.5%

Exam item: Also check CCN(CC)P(=O)(Oc1occc1Cc1cccc(F)c1)N(CC)CC
Marked response: 52.5%

Exam item: Lookup CCN(CC)P(=O)(Oc1ccco1)N(CC)CC
Marked response: 22.5%

Exam item: Also need CCN(CC)P(=O)(Oc1occc1Cc1ccccc1Cl)N(CC)CC , thanks.
Marked response: 45%

Exam item: // next record CCN(CC)P(=O)(Oc1occc1Cc1cccc(Br)c1)N(CC)CC
Marked response: 47.5%

Exam item: What about this compound? O=P(NC1CCCCC1)(NC1CCCCC1)Oc1ccco1
Marked response: 12.5%

Exam item: Can you handle CCN(CC)P(=O)(Oc1occc1Cc1ccccc1)N(CC)CC next?
Marked response: 45%

Exam item: Then this compound: COP(=S)(OC)Oc1nc(Cl)c(Cl)cc1Cl [CHLORPYRIFOS-METHYL]
Marked response: 100%

Exam item: Same again, this time with CCN(CC)P(=O)(Oc1occc1Cc1ccc(C)cc1)N(CC)CC
Marked response: 32.5%

Exam item: Please answer likewise for CCN(CC)P(=O)(Oc1occc1Cc1ccc(Br)cc1)N(CC)CC
Marked response: 32.5%

Exam item: Another compound to check: CCN(CC)P(=O)(Oc1ccco1)Oc1ccco1
Marked response: 30%

Exam item: Try the compound CCN(CC)P(=O)(Oc1occc1Cc1ccccc1F)N(CC)CC
Marked response: 35%

Exam item: Then what about the compound CCN(CC)P(=O)(Oc1occc1Cc1cccc(C)c1)N(CC)CC ?
Marked response: 45%

Exam item: Moving on to the next compound: O=P(Oc1ccco1)(Oc1ccco1)N1CCCCC1
Marked response: 10%

Exam item: Same question, O=C1C=CCO1 [FURAN-2(5H)-ONE] this time
Marked response: 32.5%
